# System: tumor necrosis factor (α)
# test_details: Cytokine Induction in Human Cells: tumor necrosis factor (α) by ELISA or IGEN Assay
# Assay type: cell-based
# experimental_conditions: human PBMC, 18 to 24 hours incubation, compounds generally tested at 30-0.014 μM; read-out: Lowest Effective Concentration Tumor Necrosis Factor
# Protocol: An in vitro human blood cell system is used to assess cytokine induction. […] Following incubation the plates are centrifuged for 10 minutes at 1000 rpm (˜200×g) at 4° C. […] The samples are analyzed for interferon (α) by ELISA and for tumor necrosis factor (α) by ELISA or IGEN Assay Tumor necrosis factor (α) (TNF) concentration is determined using ELISA kits available from Biosource International, Camarillo, Calif. […]
assay_metric: minimal effective concentration (µM)
Answer in µM, number only, no unit symbol.

tumor necrosis factor (α) data for CCOCc1nc2c(N)nc(C)cc2n1CCCCNC(=S)Nc1ccccc1 ; its minimal effective concentration: 3.33

tumor necrosis factor (α) data for CCOCc1nc2c(N)nc(C)cc2n1CCCCNC(=S)NC(=O)c1ccco1 ; its minimal effective concentration: 3.33

tumor necrosis factor (α) data for CCOCc1nc2c(N)nc(C)c(C)c2n1CCCCNS(C)(=O)=O ; its minimal effective concentration: 10

tumor necrosis factor (α) data for CCOCc1nc2c(N)nc(C)cc2n1CCCCNC(=O)N[C@@H]1C[C@H]1c1ccccc1 (relative stereo) ; its minimal effective concentration: 10

====

# Test system: tumor necrosis factor (α)
# test_details: Cytokine Induction in Human Cells: tumor necrosis factor (α) by ELISA or IGEN Assay
# Type: cell-based
# experimental_conditions: human PBMC, 18 to 24 hours incubation, compounds generally tested at 30-0.014 μM; read-out: Lowest Effective Concentration Tumor Necrosis Factor
What minimal effective concentration was measured for each of the following?
Answer in µM, number only, no unit symbol.

Value of measured minimal effective concentration for the entry CCOCc1nc2c(N)nc(C)cc2n1CCCCNC(=O)NC(C)C [Example 36] : 30

Value of measured minimal effective concentration for the entry CCOCc1nc2c(N)nc(C)cc2n1CCCCNC(=O)Nc1cccc(C#N)c1 [Example 41] : 30

Value of measured minimal effective concentration for the entry COc1ccc(NC(=S)NCCCCn2cnc3c(N)nc(C)c(C)c32)cc1 [Example 35] : 30

Value of measured minimal effective concentration for the entry CCOCc1nc2c(N)nc(C)c(C)c2n1CCC1CCN(C(=O)Nc2cccc(C(C)=O)c2)CC1 [Example 62] : 1.11

Value of measured minimal effective concentration for the entry CCOCc1nc2c(N)nc(C)cc2n1CCCCNC(=O)Nc1ccc(OC)cc1OC [Example 45] : 10

====

# System: tumor necrosis factor (α)
# test_details: Cytokine Induction in Human Cells: tumor necrosis factor (α) by ELISA or IGEN Assay
# Type: cell-based
# experimental_conditions: human PBMC, 18 to 24 hours incubation, compounds generally tested at 30-0.014 μM; read-out: Lowest Effective Concentration Tumor Necrosis Factor
assay_metric: minimal effective concentration (µM)
Answer in µM, number only, no unit symbol.

Value of measured minimal effective concentration for the entry CCCCc1nc2c(N)nc(C)c(C)c2n1CCCCNS(=O)(=O)c1ccc(F)cc1 [Example 3, Hydrate] : 0.37

Value of measured minimal effective concentration for the entry CCOCc1nc2c(N)nc(C)c(C)c2n1CCC1CCN(C(=O)Nc2cccc(SC)c2)CC1 : 1.11

Value of measured minimal effective concentration for the entry CCOCc1nc2c(N)nc(C)c(C)c2n1CCC1CCN(C(=O)N2CCOCC2)CC1 : 10

Value of measured minimal effective concentration for the entry CCOCc1nc2c(N)nc(C)c(C)c2n1CCC1CCN(C(=O)Nc2ccc(OC)cc2OC)CC1 : 1.11

Value of measured minimal effective concentration for the entry CCOCc1nc2c(N)nc(C)c(C)c2n1CCC1CCN(C(=O)NC(C)C)CC1 : 3.33

Value of measured minimal effective concentration for the entry CCCCNC(=O)NCCCCn1c(COCC)nc2c(N)nc(C)cc21 : 30

Value of measured minimal effective concentration for the entry CCOCc1nc2c(N)nc(C)c(C)c2n1CCC1CCN(C(=O)N[C@@H]2C[C@H]2c2ccccc2)CC1 (relative stereo) : 3.33

Value of measured minimal effective concentration for the entry CCOCc1nc2c(N)nc(C)c(C)c2n1CCC1CCN(C(=O)NC2CCCCC2)CC1 : 3.33

Value of measured minimal effective concentration for the entry CSc1cccc(NC(=O)NCCCCn2cnc3c(N)nc(C)c(C)c32)c1 : 3.33

Value of measured minimal effective concentration for the entry CCCCc1nc2c(N)nc(C)c(C)c2n1CCCCNS(C)(=O)=O : 0.01

Value of measured minimal effective concentration for the entry CCCCc1nc2c(N)nc(C)c(C)c2n1CCCCNC(=O)c1ccccc1 : 1.11

Value of measured minimal effective concentration for the entry CCOCc1nc2c(N)nc(C)cc2n1CCCCNC(=O)Nc1ccc(N(C)C)cc1 : 10

Value of measured minimal effective concentration for the entry CCCCc1nc2c(N)nc(C)c(C)c2n1CCCCNC(=O)Nc1ccccc1 : 0.37

Value of measured minimal effective concentration for the entry Cc1nc(N)c2ncn(CCCCNC(=S)Nc3ccccc3)c2c1C : 3.33

Value of measured minimal effective concentration for the entry CCOCc1nc2c(N)nc(C)cc2n1CCCCNC(=O)Nc1cccc(SC)c1 : 10

Value of measured minimal effective concentration for the entry CCOCc1nc2c(N)nc(C)cc2n1CCCCNC(=S)NC : 30

Value of measured minimal effective concentration for the entry COc1ccc(NC(=O)NCCCCn2cnc3c(N)nc(C)c(C)c32)c(OC)c1 : 30

Value of measured minimal effective concentration for the entry CCOCc1nc2c(N)nc(C)c(C)c2n1CCC1CCN(C(=S)NCCc2ccccc2)CC1 : 1.11

Value of measured minimal effective concentration for the entry CCOCc1nc2c(N)nc(C)c(C)c2n1CCC1CCN(C(=O)Nc2cccc(OC)c2)CC1 : 1.11

Value of measured minimal effective concentration for the entry CCOCc1nc2c(N)nc(C)c(C)c2n1CCC1CCN(C(=S)Nc2ccccc2)CC1 : 3.33

Value of measured minimal effective concentration for the entry CCCCc1nc2c(N)nc(C)c(C)c2n1CCCCNS(=O)(=O)N(C)C : 0.01

====

assay_metric: melting point

Value of measured melting point for the entry CCCCc1nc2c(N)nc(C)c(C)c2n1CCCCNC(=O)Nc1ccccc1 [Example 4] : 195.8 to 196.8 °C

Value of measured melting point for the entry CCOCc1nc2c(N)nc(C)c(C)c2n1CCC1CCN(C(=O)N2CCOCC2)CC1 [Example 12] : 158.1 to 160.5 °C

Value of measured melting point for the entry CCOCc1nc2c(N)nc(C)c(C)c2n1CCCCNS(C)(=O)=O [Example 8] : 165 to 167 °C

Value of measured melting point for the entry CCCCc1nc2c(N)nc(C)c(C)c2n1CCCCNS(=O)(=O)c1ccc(F)cc1 (hydrate or solvate) [Example 3] : 133.1 to 133.7 °C

====

# Test system: tumor necrosis factor (α)
# test_details: Cytokine Induction in Human Cells: tumor necrosis factor (α) by ELISA or IGEN Assay
# Format: cell-based
# experimental_conditions: human PBMC, 18 to 24 hours incubation, compounds generally tested at 30-0.014 μM; read-out: Lowest Effective Concentration Tumor Necrosis Factor
assay_metric: minimal effective concentration (µM)
Answer in µM, number only, no unit symbol.

Value of measured minimal effective concentration for the entry CCOCc1nc2c(N)nc(C)cc2n1CCCCNC(=S)NCCc1ccccc1 : 10

Value of measured minimal effective concentration for the entry CCCCc1nc2c(N)nc(C)c(C)c2n1CCCCNC(=S)Nc1ccccc1 [Example 5, Hydrate] : 0.12

Value of measured minimal effective concentration for the entry Cc1nc(N)c2ncn(CCCCNC(=O)Nc3ccc(N(C)C)cc3)c2c1C : 30

Value of measured minimal effective concentration for the entry CCCCNC(=O)N1CCC(CCn2c(COCC)nc3c(N)nc(C)c(C)c32)CC1 : 3.33

Value of measured minimal effective concentration for the entry CCOCc1nc2c(N)nc(C)c(C)c2n1CCC1CCN(C(=S)Nc2ccc(OC)cc2)CC1 : 1.11

Value of measured minimal effective concentration for the entry CCOCc1nc2c(N)nc(C)c(C)c2n1CCC1CCN(C(=S)NC(=O)c2ccco2)CC1 : 1.11

Value of measured minimal effective concentration for the entry CCOCc1nc2c(N)nc(C)c(C)c2n1CCC1CCN(C(=O)NC(C)(C)C)CC1 : 10

Value of measured minimal effective concentration for the entry CCOCc1nc2c(N)nc(C)c(C)c2n1CCC1CCN(C(=O)Nc2cccc(C#N)c2)CC1 : 1.11

Attribution: patent US6903113B2
